# TESTED ON: human Gal-1 (hGal-1)
# Sequence (P09382 2-135 limits assumed): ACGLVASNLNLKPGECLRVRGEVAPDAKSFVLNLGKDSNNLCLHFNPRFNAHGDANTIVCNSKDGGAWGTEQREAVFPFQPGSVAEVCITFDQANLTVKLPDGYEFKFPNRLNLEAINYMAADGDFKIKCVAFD
# TEST NAME: Competitive binding assay: binding of biotinylated hGal-1 to microplate-adsorbed asialofetuin (ASF)
# CONDITION LABEL: Activities on hGal-1; mean values of several measurements
MEASURED ATTRIBUTE: IC50 (nM)

Answered cases to consult:
Query :: Recorded IC50 for CO[C@@H]1[C@@H](n2cc(-c3cc(F)c(F)c(F)c3)nn2)[C@@H](O)[C@@H](CO)O[C@@H]1Cc1cc(C2(C)CCCC2)on1 [Ex 1.272] , please?
Result :: 3490

Query :: Similarly, CO[C@@H]1[C@@H](n2cc(-c3cc(F)c(F)c(F)c3)nn2)[C@@H](O)[C@@H](CO)O[C@@H]1C[C@@H]1CN(C2CCN(C(=O)C(C)C)CC2)C(=O)O1 [Example 5.13] ?
Result :: 4730

Query :: Same thing, different compound: CO[C@@H]1[C@@H](n2cc(-c3ccc(C)c(F)c3F)nn2)[C@@H](O)[C@@H](CO)O[C@@H]1Cc1cc(C2CCNC(=O)CC2)no1 (some centres unmarked) [Ex 1.348]
Result :: 250

Query :: Subsequent entry: CC(=O)O[C@@H]1[C@@H](n2cc(-c3cc(F)c(F)c(F)c3)nn2)[C@@H](O)[C@@H](CO)O[C@@H]1CC1=NO[C@H](C2CCN(C(C)=O)CC2)C1 [Example 3.25]
Result :: 2470

Query :: How about this compound: CCCS(=O)(=O)N1CCC(n2cc(C[C@H]3O[C@H](CO)[C@H](O)[C@H](n4cc(-c5cc(F)c(F)c(F)c5)nn4)[C@H]3OC)nn2)CC1 [Example 4.09]
Result :: 100

Query :: Same for CO[C@@H]1[C@@H](n2cc(-c3cc(F)c(Cl)c(F)c3)nn2)[C@@H](O)[C@@H](CO)O[C@@H]1CC1CC(C2CCNCC2)=NO1 (some centres unmarked) [Ex 1.146]
Result :: 4660

Query :: Check CO[C@@H]1[C@@H](n2cc(-c3cc(F)c(F)c(F)c3)nn2)[C@@H](O)[C@@H](CO)O[C@@H]1Cc1cc(C2CCC(F)(F)CC2)sn1 [Example 6.01] too.
Result :: 6380

Query :: CO[C@@H]1[C@@H](n2cc(-c3ccc(Cl)c(F)c3)nn2)[C@@H](O)[C@@H](CO)O[C@@H]1Cc1cc(C2CCCCC2)on1 [Ex 1.174] ?
Result :: 18800

Query :: Could you do the same for Cc1cc(-c2cn([C@H]3[C@@H](O)[C@@H](CO)O[C@H](CC4CC(C5CCN(C(=O)OC(C)(C)C)CC5)=NO4)[C@@H]3O)nn2)ccc1F (some centres unmarked) [Ex 1.99] , please?
Result :: 471

Query :: // repeat for CO[C@@H]1[C@@H](n2cc(-c3cc(F)c(F)c(F)c3)nn2)[C@@H](O)[C@@H](CO)O[C@@H]1Cc1cc(C2CCN(C(=O)NC(C)C)CC2)on1 [Example 3.38] and report
Result :: 450

A = CC(C)(O)CC1CC(C[C@H]2O[C@H](CO)[C@H](O)[C@H](n3cc(-c4cc(F)c(F)c(F)c4)nn3)[C@H]2O)=NO1 (some centres unmarked) [Ex 1.42]
B = OC[C@H]1O[C@H](CC2CC(c3cccc(Cl)c3)=NO2)[C@H](O)[C@@H](n2cc(-c3cc(F)c(F)c(F)c3)nn2)[C@H]1O (some centres unmarked) [Ex 1.18]
Query :: Select one. Lower IC50: A or B Selection: enter the item's label.
Result :: A
(A: 3610 nM, B: 14100 nM)

a = CO[C@@H]1[C@@H](n2cc(-c3cc(F)c(F)c(F)c3)nn2)[C@@H](O)[C@@H](CO)O[C@@H]1C[C@H]1CC(C2CCCCC2)=NO1 [Ex 1.09]
b = CO[C@@H]1[C@@H](n2cc(-c3ccc(Cl)c(F)c3F)nn2)[C@@H](O)[C@@H](CO)O[C@@H]1Cc1cc(C2(C)CCOCC2)on1 [Ex 1.271]
c = CO[C@@H]1[C@@H](n2cc(-c3cc(F)c(F)c(F)c3)nn2)[C@@H](O)[C@@H](CO)O[C@@H]1C[C@H]1CC([C@H]2CNC(=O)C2)=NO1 [Ex 1.93]
d = CCO[C@@H]1[C@@H](n2cc(-c3cc(F)c(F)c(F)c3)nn2)[C@@H](O)[C@@H](CO)O[C@@H]1Cc1cc(C2CCN(C(=O)OC(C)(C)C)CC2)on1 [Example 2.17]
Query :: Please list these in order of increasing IC50. Thank you! List the labels in the requested order.
Result :: d, b, c, a

1 = CO[C@@H]1[C@@H](n2cc(-c3cc(F)c(F)c(F)c3)nn2)[C@@H](O)[C@@H](CO)O[C@@H]1Cc1cc(C2(C#N)CCCC2)no1 [Ex 1.290]
2 = Cc1ccc(-c2cn([C@H]3[C@@H](O)[C@@H](CO)O[C@H](Cc4cc(C(C)(C)C)on4)[C@@H]3O)nn2)c(F)c1F [Ex 1.205]
Query :: // compare: 1 vs 2 , metric IC50, want the smaller Respond using the label that marks the chosen record.
Result :: 1

1 = CO[C@@H]1[C@@H](n2cc(-c3ccc(Cl)c(F)c3)nn2)[C@@H](O)[C@@H](CO)O[C@@H]1Cc1cc(C2CCOCC2)on1 [Ex 1.183]
2 = CO[C@@H]1[C@@H](n2cc(-c3cc(F)c(F)c(F)c3)nn2)[C@@H](O)[C@@H](CO)O[C@@H]1Cc1cc(C(C)(C)CO)no1 [Ex 1.207]
3 = CC(=O)N1CCC(C2CC(C[C@H]3O[C@H](CO)[C@H](O)[C@H](n4cc(-c5cc(F)c(F)c(F)c5)nn4)[C@H]3O)=NO2)CC1 (mixture of isomers) [Example 3.18]
Query :: Please list these compounds in decreasing order of IC50. Form entry: ranked labels (order as requested).
Result :: 1, 3, 2

I = COc1ccc(-c2cn([C@H]3[C@@H](O)[C@@H](CO)O[C@H](Cc4cc(C(C)(C)C)on4)[C@@H]3OC)nn2)c(F)c1F [Ex 1.352]
II = CO[C@@H]1[C@@H](n2cc(-c3ccc(C)c(F)c3F)nn2)[C@@H](O)[C@@H](CO)O[C@@H]1Cc1cc(C(C)(C)CNC(=O)OC(C)(C)C)no1 [Ex 1.331]
Query :: Kindly identify the item with the lower IC50 figure among these two: I and II Indicate your choice by writing its label.
Result :: I
(I: 1170 nM, II: 1990 nM)
